- Tested on: NCI-H647
- ASSAY_METHOD_TEXT: relative viability (nuclei count vs DMSO), 5 days (fraction); higher = more cells survive
- CONDITION_DETAILS: first compound 0.04 µM
Catalogue of relative viability readings, one per entry.
Write no unit; give the number alone.

Sample answers from the record:
COMPOUND	relative viability
Clc1ccc(Nc2nnc(Cc3ccncc3)c3ccccc23)cc1 [Vatalanib] + NC(=O)Nc1cc(-c2cccc(F)c2)sc1C(=O)N[C@H]1CCCNC1 [AZD7762] (partner 0.2 µM)	0.489
C[C@@H]1CN(CC(=O)Nc2ccc3c(c2)Cc2cccc(-c4cc(=O)cc(N5CCOCC5)o4)c2S3)C[C@H](C)O1 + O=C(c1cc(Cc2n[nH]c(=O)c3ccccc23)ccc1F)N1CCN(C(=O)C2CC2)CC1 [Olaparib] (partner 8 µM)	0.611
Clc1ccc(Nc2nnc(Cc3ccncc3)c3ccccc23)cc1 [Vatalanib] + COc1cc2c(Oc3ccc(NC(=O)C4(C(=O)Nc5ccc(F)cc5)CC4)cc3F)ccnc2cc1OCCCN1CCOCC1 [Foretinib] (partner 0.25 µM)	1.12
Clc1ccc(Nc2nnc(Cc3ccncc3)c3ccccc23)cc1 [Vatalanib] + CC(=O)c1c(C)c2cnc(Nc3ccc(N4CCNCC4)cn3)nc2n(C2CCCC2)c1=O [Palbociclib] (partner 0.5 µM)	0.415
COc1cc(N2CCC(C(N)=O)CC2)ccc1Nc1nc(N)c(Cl)c(Nc2ccccc2S(=O)(=O)C(C)C)n1 [HG-5-88-01] + Nc1ncn([C@H]2C[C@H](O)[C@@H](CO)O2)c(=O)n1 [Decitabine] (partner 2 µM)	0.375

Note to self: relative viability recorded for Clc1ccc(Nc2nnc(Cc3ccncc3)c3ccccc23)cc1 [Vatalanib] + CC1(C)CCC(c2ccc(Cl)cc2)=C(CN2CCN(c3ccc(C(=O)NS(=O)(=O)c4ccc(N[C@H](CCN5CCOCC5)CSc5ccccc5)c(S(=O)(=O)C(F)(F)F)c4)cc3)CC2)C1 [Navitoclax] (partner 0.5 µM) was 1.08

Record C[C@@H]1CN(CC(=O)Nc2ccc3c(c2)Cc2cccc(-c4cc(=O)cc(N5CCOCC5)o4)c2S3)C[C@H](C)O1 + C[C@]1(O)C[C@@H](c2nc(-c3ccc4ccc(-c5ccccc5)nc4c3)c3c(N)nccn32)C1 [Linsitinib] (partner 1 µM) , field relative viability: 1.28

Item: C[C@@H]1CN(CC(=O)Nc2ccc3c(c2)Cc2cccc(-c4cc(=O)cc(N5CCOCC5)o4)c2S3)C[C@H](C)O1 + CC(=O)Nc1cccc(-n2c(=O)n(C3CC3)c(=O)c3c(Nc4ccc(I)cc4F)n(C)c(=O)c(C)c32)c1 [Trametinib] (partner 0.02 µM) | relative viability: 0.565
